Hey, just so you know, these numbers are from ChEMBL document CHEMBL5030553.

Assignment: determine reported inhibition for the given compounds.
# TARGET ENTITY: UniProtKB P04629
# Sequence (P04629 33-796 limits assumed): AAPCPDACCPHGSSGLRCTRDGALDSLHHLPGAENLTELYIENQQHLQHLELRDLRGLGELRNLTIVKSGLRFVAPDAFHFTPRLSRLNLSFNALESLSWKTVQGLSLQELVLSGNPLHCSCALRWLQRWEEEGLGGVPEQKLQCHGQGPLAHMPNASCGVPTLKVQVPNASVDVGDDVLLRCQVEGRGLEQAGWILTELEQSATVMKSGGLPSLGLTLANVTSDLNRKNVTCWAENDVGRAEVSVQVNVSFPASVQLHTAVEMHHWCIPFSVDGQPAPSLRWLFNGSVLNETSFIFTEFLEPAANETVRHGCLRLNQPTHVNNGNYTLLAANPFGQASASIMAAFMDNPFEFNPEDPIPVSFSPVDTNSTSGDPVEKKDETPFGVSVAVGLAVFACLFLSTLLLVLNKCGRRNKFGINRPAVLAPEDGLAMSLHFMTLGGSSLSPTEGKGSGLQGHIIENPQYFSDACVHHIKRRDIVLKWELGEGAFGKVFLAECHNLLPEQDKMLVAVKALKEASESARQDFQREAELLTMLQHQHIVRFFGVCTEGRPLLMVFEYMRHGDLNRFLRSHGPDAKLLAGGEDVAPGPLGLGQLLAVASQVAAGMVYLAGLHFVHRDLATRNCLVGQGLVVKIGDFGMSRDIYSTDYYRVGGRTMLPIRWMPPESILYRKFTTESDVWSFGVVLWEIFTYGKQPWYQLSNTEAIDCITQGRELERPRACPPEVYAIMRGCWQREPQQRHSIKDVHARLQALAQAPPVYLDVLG
# TEST PROTOCOL: Inhibition of TRKA (unknown origin) at 500 nM
Numbers only here, please. The scale is %.

Fill in: inhibition on UniProtKB P04629, entry CC(=O)N1CCCOc2ccc(F)cc2CN(C)c2ccn3ncc(c3n2)C1 102

Fill in: inhibition on UniProtKB P04629, entry C[C@H]1CN(S(C)(=O)=O)Cc2cnn3ccc(nc23)N(C)Cc2cc(F)ccc2O1 104

Fill in: inhibition on UniProtKB P04629, entry CN1Cc2cc(F)ccc2OCCN(S(=O)(=O)CCl)Cc2cnn3ccc1nc23 103

Fill in: inhibition on UniProtKB P04629, entry CN1Cc2cc(F)ccc2OCCN(C(=O)CCl)Cc2cnn3ccc1nc23 99.9

Fill in: inhibition on UniProtKB P04629, entry CCS(=O)(=O)N1CCCOc2cccc(c2)CN(C)c2ccn3ncc(c3n2)C1 83.8

Fill in: inhibition on UniProtKB P04629, entry CN1Cc2cc(F)ccc2OCCCN(S(C)(=O)=O)Cc2cnn3ccc1nc23 104

Fill in: inhibition on UniProtKB P04629, entry CCS(=O)(=O)N1Cc2cnn3ccc(nc23)N(C)Cc2cc(F)ccc2O[C@@H](C)C1 101

Fill in: inhibition on UniProtKB P04629, entry C=CC(=O)N1CCOc2ccc(F)cc2CN(C)c2ccn3ncc(c3n2)C1 98.9

Fill in: inhibition on UniProtKB P04629, entry CN1Cc2cc(F)ccc2OCCNCc2cnn3ccc1nc23 85.2

Fill in: inhibition on UniProtKB P04629, entry CCS(=O)(=O)N1CCCOc2ccc(F)cc2CN(C)c2ccn3ncc(c3n2)C1 100

Fill in: inhibition on UniProtKB P04629, entry CC(=O)N1CCOc2ccc(F)cc2CN(C)c2ccn3ncc(c3n2)C1 98.7

Fill in: inhibition on UniProtKB P04629, entry CN1Cc2cc(F)ccc2OCCN(S(C)(=O)=O)Cc2cnn3ccc1nc23 99.4

Fill in: inhibition on UniProtKB P04629, entry CN1Cc2cccc(c2)OCCCN(S(=O)(=O)CCl)Cc2cnn3ccc1nc23 88.1

Fill in: inhibition on UniProtKB P04629, entry CN1Cc2cccc(c2)OCCCNCc2cnn3ccc1nc23 26.9
